- TARGET: native human transporter GlyT1 (Homo sapiens)
- Construct: SK-N-MC cells (human neuroepithelial cells) expressing the native human transporter GlyT1; endogenous in cells
- Sequence (P48067 whole entry): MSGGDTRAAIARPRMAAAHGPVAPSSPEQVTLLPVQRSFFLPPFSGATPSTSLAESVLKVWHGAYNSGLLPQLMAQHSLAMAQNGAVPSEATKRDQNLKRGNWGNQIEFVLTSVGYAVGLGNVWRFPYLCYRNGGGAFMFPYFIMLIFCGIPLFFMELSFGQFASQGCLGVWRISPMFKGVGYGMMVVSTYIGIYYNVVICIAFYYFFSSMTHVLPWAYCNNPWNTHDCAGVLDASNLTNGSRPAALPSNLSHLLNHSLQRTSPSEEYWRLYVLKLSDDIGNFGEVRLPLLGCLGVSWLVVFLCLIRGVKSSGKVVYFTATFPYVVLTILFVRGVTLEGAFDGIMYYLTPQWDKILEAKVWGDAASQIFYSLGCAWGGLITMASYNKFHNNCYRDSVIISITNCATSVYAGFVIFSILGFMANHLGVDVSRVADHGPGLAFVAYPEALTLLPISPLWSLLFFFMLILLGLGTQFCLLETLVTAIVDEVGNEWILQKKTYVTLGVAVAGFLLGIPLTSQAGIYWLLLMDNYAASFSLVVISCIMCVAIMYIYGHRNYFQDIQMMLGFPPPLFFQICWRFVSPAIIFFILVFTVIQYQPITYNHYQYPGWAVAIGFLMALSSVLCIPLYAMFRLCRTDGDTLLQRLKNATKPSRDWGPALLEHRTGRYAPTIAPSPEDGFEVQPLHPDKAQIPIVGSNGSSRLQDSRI
- EXPERIMENT SUMMARY: Uptake of [14C]glycine in SK-N-MC cells expressing the native human transporter GlyT1
- CONDITIONS: 10 μM [14C]glycine, 10 min preincubation and 10 min incubation at 37° C., pH 7.4, read-out: IC50, the concentration of the compound which reduces by 50% the specific uptake of glycine

>  <MOLECULE>
O=C(N[C@H](c1ccccc1)[C@@H]1CCC[C@H]2CCCN21)c1cccc(C(F)(F)F)c1Cl (racemic)

>  <IC50>
23 nM

$$$$
>  <MOLECULE>
O=C(NC(c1ccccc1)C1CCC2CCCCN21)c1cccc(C(F)(F)F)c1Cl (racemic)

>  <IC50>
3 nM

$$$$
>  <MOLECULE>
O=C(NC(c1ccccc1)C1CCCC2CCCN21)c1cccc(C(F)(F)F)c1Cl (racemic)

>  <IC50>
80 nM

$$$$
